assay: Cytotoxicity against human LIXF 575L cells after 4 days by propidium iodide staining-based fluorometric analysis; type: functional, cell-based; details: 96 h
pIC50: −log10 of the molar value.
Quick rule for you: pIC50 at 5 or higher means true, lower means false.

Challenge: Could you tell me if the measured pIC50 of O=C(c1cc2ccccc2[nH]1)c1cc2c(Nc3cccc(Cl)c3)ncnc2s1 reaches 5 or more?
Response given: false

Challenge: Next record, please: C#Cc1cccc(Nc2ncnc3cc(OCCOC)c(OCCOC)cc23)c1 [ERLOTINIB]
Response given: false

Challenge: Try this molecule next: O=C(c1cc2cc(O)ccc2[nH]1)c1cc2c(Nc3ccc(F)c(Cl)c3)ncnc2s1
Response given: true

Origin of measurements: ChEMBL document CHEMBL1926681
